viability, T/C overview
# Test system: 857933-349-R-J2-PDC complex spheroid viability
# run-description: Anticancer human tumor 857933-349-R-J2-PDC patient-derived colon adenocarcinoma cell line growth inhibition [POLQ]
# assay-conditions: second compound 0.0316 µM; first compound 0.0316 µM; stronger effect = lower value
Record the value in %, omitting the unit from your answer.

// query Param item = COc1cc(C2c3cc4c(cc3C(OC3OC5COC(C)OC5C(O)C3O)C3COC(=O)C23)OCO4)cc(OC)c1O (centres undefined) + Cc1cccc(N(C)C(=O)C2C(O)CCN2c2nc(C)cc(C(F)(F)F)c2C#N)c1 ; retrieve measured viability, T/C.
// result 86.1

// query Looking for the measured viability, T/C of C#Cc1c(F)ccc2cc(O)cc(-c3ncc4c(N5CC6CCC(C5)N6)nc(OCC56CCCN5CC(F)C6)nc4c3F)c12 (centres undefined) + Cc1cccc(N(C)C(=O)C2C(O)CCN2c2nc(C)cc(C(F)(F)F)c2C#N)c1 , can you help?
// result 91.7

// query Which viability, T/C reading was recorded for the compound CC[C@@]1(O)C(=O)OCc2c1cc1n(c2=O)Cc2cc3c(CN(C)C)c(O)ccc3nc2-1 + COC1C(OC(N)=O)C(O)C(Oc2ccc3c(O)c(NC(=O)c4ccc(O)c(CC=C(C)C)c4)c(=O)oc3c2C)OC1(C)C ?
// result 83

// query What does the record list as viability, T/C for O=C(Nc1ccc(O)c(NS(=O)(=O)c2ccc(F)cc2)c1)c1ccc(-c2ccccc2)cc1 + Nc1ccc(C#CCN(C(=O)Cc2ncc(C(F)(F)F)cc2C(F)(F)F)c2ccc(F)cc2)nn1 ?
// result 95.1

// query Sample CNCc1ccc(-c2[nH]c3cc(F)cc4c3c2CCNC4=O)cc1 + COC1C(OC(N)=O)C(O)C(Oc2ccc3c(O)c(NC(=O)c4ccc(O)c(CC=C(C)C)c4)c(=O)oc3c2C)OC1(C)C — what was its viability, T/C?
// result 85.1

* * *

Readings of viability, T/C for the listed compounds
# Tested on: 857933-349-R-J2-PDC complex spheroid viability
# run-description: Anticancer human tumor 857933-349-R-J2-PDC cell line growth inhibition [POLQ];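 note: spheroids exposed to compounds for seven days before readout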
# assay-conditions: second compound 3.16 µM; first compound 0.1 µM; stronger effect = lower value
Use % as the unit, but write only the number.

COc1cc2cc(C(=O)CCC(=O)O)sc2cc1OC + COC1C(OC(N)=O)C(O)C(Oc2ccc3c(O)c(NC(=O)c4ccc(O)c(CC=C(C)C)c4)c(=O)oc3c2C)OC1(C)C: 91.1
C=CCn1c(=O)c2cnc(Nc3ccc(N4CCN(C)CC4)cc3)nc2n1-c1cccc(C(C)(C)O)n1 + Cc1cccc(N(C)C(=O)C2C(O)CCN2c2nc(C)cc(C(F)(F)F)c2C#N)c1: 89

// query For the record C=CC(=O)N1CCN(c2nc(=O)n(-c3c(C)ccnc3C(C)C)c3nc(-c4c(O)cccc4F)c(F)cc23)C(C)C1 (stereo not drawn) + Nc1ccc(C#CCN(C(=O)Cc2ncc(C(F)(F)F)cc2C(F)(F)F)c2ccc(F)cc2)nn1 , what value of viability, T/C is listed for 857933-349-R-J2-PDC complex spheroid viability?
// result 88.8

* * *

# Tested on: 857933-349-R-J2-PDC complex spheroid viability
# run-description: Anticancer human tumor 857933-349-R-J2-PDC cell line growth inhibition [POLQ];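 note: spheroids exposed to compounds for seven days before readout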
# assay-conditions: curve of first compound; second compound 1 µM
measurement-type: IC50

Here are 3 compounds together with their reported answers.
COc1cc2cc(C(=O)CCC(=O)O)sc2cc1OC + Nc1ccc(C#CCN(C(=O)Cc2ncc(C(F)(F)F)cc2C(F)(F)F)c2ccc(F)cc2)nn1: > 10 µM
Cn1ncnc1[C@H]1c2n[nH]c(=O)c3cc(F)cc(c23)N[C@@H]1c1ccc(F)cc1 + Cc1cccc(N(C)C(=O)C2C(O)CCN2c2nc(C)cc(C(F)(F)F)c2C#N)c1: > 0.1 µM
O=C(c1cc(Cc2n[nH]c(=O)c3ccccc23)ccc1F)N1CCN(C(=O)C2CC2)CC1 + COC1C(OC(N)=O)C(O)C(Oc2ccc3c(O)c(NC(=O)c4ccc(O)c(CC=C(C)C)c4)c(=O)oc3c2C)OC1(C)C: > 10 µM

// query # input compound: CNCc1ccc(-c2[nH]c3cc(F)cc4c3c2CCNC4=O)cc1 + Nc1ccc(C#CCN(C(=O)Cc2ncc(C(F)(F)F)cc2C(F)(F)F)c2ccc(F)cc2)nn1 ; wanted: its IC50
// result > 10 µM

// query So what's the measured IC50 for this one? COc1ccc([C@@H](O)c2cc(-c3ncnc4cc(N5CCOCC5)ccc34)c(F)cc2Cl)nn1 + COC1C(OC(N)=O)C(O)C(Oc2ccc3c(O)c(NC(=O)c4ccc(O)c(CC=C(C)C)c4)c(=O)oc3c2C)OC1(C)C
// result > 10 µM

* * *

# Tested on: 857933-349-R-J2-PDC complex spheroid viability
# run-description: Anticancer human tumor 857933-349-R-J2-PDC cell line growth inhibition [POLQ];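 note: spheroids exposed to compounds for seven days before readout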
# assay-conditions: second compound 1 µM; first compound 10 µM; stronger effect = lower value
Decide using viability, T/C alone. Strictly below 60%: YES. Equal to or above 60%: NO.

// query # strict comparison: is reported viability, T/C < 60%? input = COc1cc(C2c3cc4c(cc3C(OC3OC5COC(C)OC5C(O)C3O)C3COC(=O)C23)OCO4)cc(OC)c1O (configuration not stated) + Nc1ccc(C#CCN(C(=O)Cc2ncc(C(F)(F)F)cc2C(F)(F)F)c2ccc(F)cc2)nn1
// result YES

// query Determine if COc1cccc2c1C(=O)c1c(O)c3c(c(O)c1C2=O)CC(O)(C(=O)CO)CC3OC1CC(N)C(O)C(C)O1 (configuration not stated) + Nc1ccc(C#CCN(C(=O)Cc2ncc(C(F)(F)F)cc2C(F)(F)F)c2ccc(F)cc2)nn1 shows viability, T/C strictly lower than 60%.
// result YES

// query Bench note: check whether O=C(c1cc(Cc2n[nH]c(=O)c3ccccc23)ccc1F)N1CCN(C(=O)C2CC2)CC1 + Nc1ccc(C#CCN(C(=O)Cc2ncc(C(F)(F)F)cc2C(F)(F)F)c2ccc(F)cc2)nn1 shows viability, T/C below 60%
// result NO

// query Field: below-cutoff. Rule: recorded viability, T/C strictly less than 60%. Subject: CC(C)n1c(=O)n(C)c2cnc3cc(F)c(-c4ccc(OCCCN5CCCCC5)nc4)cc3c21 + Nc1ccc(C#CCN(C(=O)Cc2ncc(C(F)(F)F)cc2C(F)(F)F)c2ccc(F)cc2)nn1
// result NO

// query Is viability, T/C of CCCS(=O)(=O)Nc1ccc(F)c(C(=O)c2c[nH]c3ncc(-c4ccc(Cl)cc4)cc23)c1F + COC1C(OC(N)=O)C(O)C(Oc2ccc3c(O)c(NC(=O)c4ccc(O)c(CC=C(C)C)c4)c(=O)oc3c2C)OC1(C)C strictly below 60%?
// result YES

* * *

Each record here notes measured viability, T/C.
# System: 857933-349-R-J2-PDC complex spheroid viability
# run-description: Anticancer human tumor 857933-349-R-J2-PDC cell line growth inhibition [POLQ];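 note: spheroids exposed to compounds for seven days before readout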
# assay-conditions: second compound 0.0316 µM; first compound 10 µM; stronger effect = lower value
Write it as a number; the unit % goes unstated.

O=C(Nc1ccc(O)c(NS(=O)(=O)c2ccc(F)cc2)c1)c1ccc(-c2ccccc2)cc1 + Nc1ccc(C#CCN(C(=O)Cc2ncc(C(F)(F)F)cc2C(F)(F)F)c2ccc(F)cc2)nn1: 92
C=CC(=O)N1CCN(c2nc(=O)n(-c3c(C)ccnc3C(C)C)c3nc(-c4c(O)cccc4F)c(F)cc23)C(C)C1 (configuration not stated) + Nc1ccc(C#CCN(C(=O)Cc2ncc(C(F)(F)F)cc2C(F)(F)F)c2ccc(F)cc2)nn1: 87.6
CC(C)n1c(=O)n(C)c2cnc3cc(F)c(-c4ccc(OCCCN5CCCCC5)nc4)cc3c21 + Nc1ccc(C#CCN(C(=O)Cc2ncc(C(F)(F)F)cc2C(F)(F)F)c2ccc(F)cc2)nn1: 98.8
C#Cc1c(F)ccc2cc(O)cc(-c3ncc4c(N5CC6CCC(C5)N6)nc(OCC56CCCN5CC(F)C6)nc4c3F)c12 (configuration not stated) + Nc1ccc(C#CCN(C(=O)Cc2ncc(C(F)(F)F)cc2C(F)(F)F)c2ccc(F)cc2)nn1: 73.1
COc1cc(C2c3cc4c(cc3C(OC3OC5COC(C)OC5C(O)C3O)C3COC(=O)C23)OCO4)cc(OC)c1O (configuration not stated) + COC1C(OC(N)=O)C(O)C(Oc2ccc3c(O)c(NC(=O)c4ccc(O)c(CC=C(C)C)c4)c(=O)oc3c2C)OC1(C)C: 28.7

Next compound, please.
// query Entry CCc1cc2c(N3CCc4c(cc(Cn5ccnc5)cc4-c4cn(C)nc4C(F)(F)F)C3=O)ccnc2c(OC)n1 + COC1C(OC(N)=O)C(O)C(Oc2ccc3c(O)c(NC(=O)c4ccc(O)c(CC=C(C)C)c4)c(=O)oc3c2C)OC1(C)C : reported viability, T/C = ?
// result 51.8
